# System: Polyunsaturated fatty acid 5-lipoxygenase (Rattus norvegicus)
# Sequence (P12527 whole entry): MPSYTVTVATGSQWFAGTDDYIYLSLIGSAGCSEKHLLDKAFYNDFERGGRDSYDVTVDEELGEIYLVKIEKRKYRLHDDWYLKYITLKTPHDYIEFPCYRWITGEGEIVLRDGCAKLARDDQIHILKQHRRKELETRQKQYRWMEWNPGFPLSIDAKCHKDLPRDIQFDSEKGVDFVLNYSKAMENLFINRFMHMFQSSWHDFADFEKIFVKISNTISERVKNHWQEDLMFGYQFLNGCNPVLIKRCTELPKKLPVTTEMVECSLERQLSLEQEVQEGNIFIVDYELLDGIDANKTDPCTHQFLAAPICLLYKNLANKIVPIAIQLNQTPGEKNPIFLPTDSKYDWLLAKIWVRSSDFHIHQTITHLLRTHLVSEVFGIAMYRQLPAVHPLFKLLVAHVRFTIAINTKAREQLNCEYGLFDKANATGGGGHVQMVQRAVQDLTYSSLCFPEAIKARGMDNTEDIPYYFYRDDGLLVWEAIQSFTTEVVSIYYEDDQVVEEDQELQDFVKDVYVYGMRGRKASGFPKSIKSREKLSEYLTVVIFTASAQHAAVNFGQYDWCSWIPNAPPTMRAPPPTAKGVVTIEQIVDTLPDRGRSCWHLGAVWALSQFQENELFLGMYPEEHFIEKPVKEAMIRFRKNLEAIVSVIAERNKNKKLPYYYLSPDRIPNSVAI
# Method Notes: The compound was evaluated in vitro for inhibition of 5-lipoxygenase activity in RBL-1 cells.
# Format: cell-based
Metric: pIC50
Please express pIC50 as -log10 of the molar concentration.

In: Field request: pIC50 | item: O=C1c2ccccc2C(=O)C1C1C(=O)c2ccccc2C1=O
Out: 4.55

---

# System: UniProt P12527
# Method Notes: In vitro for inhibition of 5-lipoxygenase activity in RBL-1 cells.
# Assay type: cell-based
Metric: IC50

Sample answers from the record:
>>> value_measured("COC1=C(c2ccccc2)C(=O)c2ccccc21")
"Not Active"
>>> value_measured("O=C1c2ccccc2[C@H](O)[C@H]1c1ccccc1")
"Not Active"
>>> value_measured("O=C1c2ccccc2C(=O)C1[N+](=O)[O-]")
"Not Active"
>>> value_measured("O=C1c2cccc3cccc(c23)C(=O)C1c1ccccc1")
"Not Active"
>>> value_measured("O=C1c2ccccc2C(=O)N1c1ccccc1 [N-PHENYL-PHTHALIMIDE]")
"Not Active"
>>> value_measured("O=C(c1ccccc1)C(C(=O)c1ccccc1)c1ccccc1")
"Not Active"

Proceed to the following item.
In: Field request: IC50 | item: O=C1CC(=O)c2ccccc21
Out: Not Active

---

# System: Polyunsaturated fatty acid 5-lipoxygenase (Rattus norvegicus)
# Method Notes: In vitro inhibition of 5-lipoxygenase activity in RBL-1 cells.
# Assay type: cell-based
Recorded measurements of IC50, one per entry
Respond with the bare value in µM.

Sample answers from the record:
>>> value_measured("CC(C)(C)c1cc(C2C(=O)c3ccccc3C2=O)cc(C(C)(C)C)c1")
2.8
>>> value_measured("O=C1c2ccccc2C(=O)C1(Sc1ccccc1)c1ccccc1")
4.8
>>> value_measured("CCCCc1ccc(C2C(=O)c3ccccc3C2=O)cc1")
1.7

In: Field request: IC50 | item: COc1ccc(C2C(=O)c3ccccc3C2=O)cc1
Out: 9.1

In: Field request: IC50 | item: O=C1c2ccccc2C(=O)C1c1ccc(F)cc1
Out: 9.6

In: Field request: IC50 | item: O=C1c2ccccc2C(=O)C1(F)c1ccc2ccccc2c1
Out: 2

In: Field request: IC50 | item: CCCCc1ccc(C2C(=O)CCCCCC2=O)cc1
Out: 12
